test system: mouse biphasic allergic dermal reaction; assay: Mouse Biphasic Allergic Dermal Reaction; assay type: in vivo, Female Balb/c mice; conditions: Mus musculus, 1 h; 1.0 mg/kg, oral; read-out: immediate edema (1 hr) suppression (%)
Listed here: items and their measured inhibition in vivo at 1 mg/kg.

## Task Request: inhibition in vivo at 1 mg/kg, test system mouse biphasic allergic dermal reaction, entry O=S(=O)(CCCCCCN1CCN(C(c2ccccc2)c2ccc(Cl)cc2)CC1)NC1CC1 (stereo not shown)
## Result 52.4%

## Task Request: inhibition in vivo at 1 mg/kg, test system mouse biphasic allergic dermal reaction, entry O=S(=O)(CCCCCCCCN1CCN(C(c2ccc(F)cc2)c2ccccn2)CC1)NC1CC1 (stereo not shown)
## Result 31.6%

## Task Request: inhibition in vivo at 1 mg/kg, test system mouse biphasic allergic dermal reaction, entry O=S(=O)(CCCCCCN1CCN(C(c2ccccc2)c2ccc(Cl)cc2)CC1)NC1CCCCC1 (stereo not shown)
## Result 40%

## Task Request: inhibition in vivo at 1 mg/kg, test system mouse biphasic allergic dermal reaction, entry O=S(=O)(CCCCCCN1CCN(C(c2ccccc2)c2ccc(Cl)cc2)CC1)NC1CCC1 (stereo not shown)
## Result 28%

## Task Request: inhibition in vivo at 1 mg/kg, test system mouse biphasic allergic dermal reaction, entry O=S(=O)(CCCCCCN1CCN(C(c2ccc(F)cc2)c2ccccn2)CC1)NC1CC1 (stereo not shown)
## Result 15.8%

## Task Request: inhibition in vivo at 1 mg/kg, test system mouse biphasic allergic dermal reaction, entry NS(=O)(=O)CCCCCCN1CCN(C(c2ccccc2)c2ccc(Cl)cc2)CC1 (stereo not shown)
## Result 56%

## Task Request: inhibition in vivo at 1 mg/kg, test system mouse biphasic allergic dermal reaction, entry O=S(=O)(CCCCCCN1CCN(C(c2ccccc2)c2cccc(Cl)c2)CC1)NC1CC1 (stereo not shown)
## Result 56.5%
